- PROTOCOL_NOTES: melting temperature; UV melt of duplexes
- PARTICULARS: sodium 0.62 M; strand 2 µM
PROPERTY_NAME: Tm

Which Tm value belongs to TCCACACGGTAGTAAAATTAGGCTT+AAGCCTAATTTTACTACCGTGTGGA (((((((((((((((((((((((((+))))))))))))))))))))))))) ? 71.8 °C

Same question, TTATGTATTAAGTTATATAGTAGTAGTAGT+ACTACTACTACTATATAACTTAATACATAA ((((((((((((((((((((((((((((((+)))))))))))))))))))))))))))))) this time 65.1 °C

Same question, TACTTCCAGTGCTCAGCGTA+TACGCTGAGCACTGGAAGTA ((((((((((((((((((((+)))))))))))))))))))) this time 71.6 °C

Same question, CCGTGCGGTGTGTACGTTTTATTCATCATA+TATGATGAATAAAACGTACACACCGCACGG ((((((((((((((((((((((((((((((+)))))))))))))))))))))))))))))) this time 76.5 °C

Same question, CTTCAACGGATCAGGTAGGACTGTGGTGGG+CCCACCACAGTCCTACCTGATCCGTTGAAG ((((((((((((((((((((((((((((((+)))))))))))))))))))))))))))))) this time 78.8 °C

Same question, CAGTGGGCTCCTGGGCGTGCTGGTC+GACCAGCACGCCCAGGAGCCCACTG (((((((((((((((((((((((((+))))))))))))))))))))))))) this time 82.6 °C

From: the array DNA melting data of Ke et al.
